CC50 at 48 h for assorted molecules
- assay_name: Cytotoxicity test (Cell Counting Kit-8), A549
- Assay type: cell-based
- measurement_parameters: human, A549 cells, read-out: CC50 (50% cytotoxicity concentration) (converted)
value_type: CC50 at 48 h

[[record]]
entry_smiles = "O=C(Nc1nc2cccc(-c3ccc(CN4CCS(=O)(=O)CC4)cc3)n2n1)C1CC1"
reported_result = "> 316 µM"

[[record]]
entry_smiles = "CN1C/C=C/CCOc2cccc(c2)-c2ccnc(n2)Nc2cccc(c2)C1"
reported_result = "35.5 µM"

[[record]]
entry_smiles = "O=C(Nc1c[nH]nc1-c1nc2cc(CN3CCOCC3)ccc2[nH]1)NC1CC1"
reported_result = "> 316 µM"

[[record]]
entry_smiles = "N#C/C(=C\\c1ccc(O)c(O)c1)C(=O)NCc1ccccc1"
reported_result = "2690 µM"


---

CC50 at 48 h for assorted compounds
- assay_name: Cytotoxicity test (Cell Counting Kit-8), HEK293
- Type: cell-based, human
- measurement_parameters: human, HEK293 cells, 293 (HEK293) cells, read-out: CC50 (50% cytotoxicity concentration) (converted)
value_type: CC50 at 48 h

[[record]]
compound = "O=C(Nc1nc2cccc(-c3ccc(CN4CCS(=O)(=O)CC4)cc3)n2n1)C1CC1 [Compound J19]"
reported_result = "> 316 µM"

[[record]]
compound = "N#CCNC(=O)c1ccc(-c2ccnc(Nc3ccc(N4CCOCC4)cc3)n2)cc1 [Compound J8]"
reported_result = "> 316 µM"

[[record]]
compound = "COc1cc2ncnc(Nc3ccc(O)cc3)c2cc1OC [Compound J20]"
reported_result = "> 316 µM"

